The reader will find reported Ratio of (kd pH 5.8)/(kd pH 7.4) values listed item by item below.
- system_name: T1, Human mature myostatin (myostatin mature form; recombinant mature myostatin) (human (mature form 100% identical in …, UniProt O08689 268-376 (mouse entry), biotinylated in the Biacore assay (immobilized on a streptavidin chip); not labelled in the HEK Blue Assay)
- T1 construct: Disulfide-bonded homodimer of the C-terminal growth factor domain, purified from latent myostatin expressed in FreeStyle293-F cells; also called GDF-8 mature form; C-terminal growth factor domain of human myostatin
- T1 sequence: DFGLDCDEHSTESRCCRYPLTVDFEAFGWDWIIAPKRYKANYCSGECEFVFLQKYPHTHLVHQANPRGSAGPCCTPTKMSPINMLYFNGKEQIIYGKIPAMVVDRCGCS
- experiment_summary: SPR, Biacore T200, 37 degrees C; biotinylated mature myostatin on streptavidin chip; ratio of dissociation rates
Please respond with just the number, no unit label.

MS_M22601H1080-SG1/M22608L0846-SK1 (antibody, human IgG1, kappa, V domains shown, pH-dependent variant of MSLO00-SG1; also called MSLO04-SG1; LO04-SG1) VH: EVQLVESGGGLVQPGGSLRLSCAVSGFTLSHYVKGWVRQAPGKGLEWIGIINIEGSTYYASWAEGRFTISRDNSKNTVYLQMNSLRAEDTAVYFCARGHDNFGYSYHDFNLWGQGTLVTVSS VL: AVVMTQSPATLSLSPGERVTLSCQASQSIHHDLSWYQQKPGQPPKLLIYLASTLASGVPSRFKGSGSGTDFTLTISSLQPEDAATYYCQTYDGISHYGVAFGQGTKVEIKR = 25.9

Query: Tell us which Ratio of (kd pH 5.8)/(kd pH 7.4) value is on record for MS_M22601H1020-SG1/M22608L0744-SK1 (antibody, human IgG1, kappa, V domains shown, pH-dependent variant of MSLO00-SG1; also called MSLO01-SG1; LO01-SG1) VH: EVQLVESGGGLVQPGGSLRLSCAVSGFTLSHYVKGWVRQAPGKGLEWIGIINISGSTYYASWAKGRFTISRDNSKNTVYLQMNSLRAEDTAVYFCARGHDNFGYSYHDFNLWGQGTLVTVSS VL: AVVMTQSPATLSLSPGERVTLSCQASQSIHHELSWYQQKPGQPPKLLIYLASTLASGVPSRFKGSGSGTDFTLTISSLQPEDAATYYCQTYDGISHYGVAFGQGTKVEIKR
Reply: 17.4

Query: Please report the measured Ratio of (kd pH 5.8)/(kd pH 7.4) for MS_M22601H1080-SG1/M22608L0837-SK1 (antibody, human IgG1, kappa, V domains shown, pH-dependent variant of MSLO00-SG1; also called MSLO02-SG1; LO02-SG1) VH: EVQLVESGGGLVQPGGSLRLSCAVSGFTLSHYVKGWVRQAPGKGLEWIGIINIEGSTYYASWAEGRFTISRDNSKNTVYLQMNSLRAEDTAVYFCARGHDNFGYSYHDFNLWGQGTLVTVSS VL: AVVMTQSPATLSLSPGERVTLSCQASESIHHELSWYQQKPGQPPKLLIYLASTLASGVPSRFKGSGSGTDFTLTISSLQPEDAATYYCQTYDGISHYGVAFGQGTKVEIKR
Reply: 26.2

Query: Retrieve Ratio of (kd pH 5.8)/(kd pH 7.4) measured for MS_M22601H-SG1/M22608L-SK1 (antibody, human IgG1, kappa, V domains shown, Humanized form of MST0226-G1m; the non pH-dependent antibody; also called MSLO00-SG1; LO00-SG1) VH: EVQLVESGGGLVQPGGSLRLSCAVSGFTLSNYVMGWVRQAPGKGLEWIGIINISGSTYYASWAKGRFTISRDNSKNTVYLQMNSLRAEDTAVYFCARGGDNFGYSYIDFNLWGQGTLVTVSS VL: AVVMTQSPATLSLSPGERVTLSCQASQSISNELSWYQQKPGQPPKLLIYLASTLASGVPSRFKGSGSGTDFTLTISSLQPEDAATYYCQTYDGISSYGVAFGQGTKVEIKR and print it.
Reply: 0.8
